For each of the compounds below, state its max response.
Test: qHTS RealTime-Glo MT Cell Viability Assay in HEK293 cells - 40 hour (AID 1224874); note: % is set by controls: 0 for no effect and ±100 for the full control effect; nearly all actives have a fitted effect of over 50% in size
Details: RealTime-Glo luminescence; active compounds read low
Excerpt: U.S. Tox21 Program National Center for Advancing Translational Sciences [NCATS] NIH Chemical Genomics Center [NCGC] U.S. Environmental Protection Agency [EPA] National Institutes of Environmental Health Sciences [NIEHS] National Toxicology Program [NTP] U.S. Food and Drug Administration [FDA] Tox21 Assay Overview: Measure of cell viability is critical in the cell-base assay. Analysis of cell viability is necessary for the characterization of cell responses to cytotoxic drugs and environmental stress. […]
Results filed as inconclusive are left out.
Numeric only. Scale: %

Lookup: Recorded max response of "O=C(CS)Nc1ccccc1" , please.
Found: -18

Lookup: Data request, read-out max response, for "NCC(=O)O"
Found: 8.51

Lookup: // max response lookup, key: "CCN(CC)c1ccc(C(=C2C=CC(=[N+](CC)CC)C=C2)c2cc(S(=O)(=O)O)ccc2S(=O)(=O)[O-])cc1"
Found: 0.738

Lookup: Which value of max response has been reported for CCC(C)O (configuration not stated) in the records?
Found: 7.73

Lookup: I have this compound here, "CC(C)(C)Cl" , and I need its recorded max response.
Found: 1.73

Lookup: What value of max response has been recorded for this entry: "Cc1cccc(C)c1NC(=O)CN(CC(=O)O)CC(=O)O"
Found: 5.56

Lookup: Fill in the blank: the reported max response of "CC(C)CC(=O)C1C(=O)c2ccccc2C1=O" is ____.
Found: 0.634

Lookup: Returns the measured max response for the input compound. Input: "C=C(C)C(=O)OCCOCC"
Found: 17.3

Lookup: Report max response for "CCCCCCc1ccc(-c2ccc(C#N)cc2)cc1" please.
Found: -15.1

Lookup: Any idea what max response was measured for CC(CC=O)c1ccccc1 (configuration not stated) ?
Found: 0.684

Lookup: max response for Cc1ccc(C(C)OC(=O)C2(C)CCC(C(=O)O)C2(C)C)cc1 (configuration not stated) ?
Found: 8.96

Lookup: Given "O=C(Nc1ccc(S(=O)(=O)N2CCOCC2)cc1)c1cc(Cl)ccc1NS(=O)(=O)c1ccc(Cl)s1" , state its recorded max response.
Found: -14.7

Lookup: What max response value was documented for this compound, "C[N+](C)(C)CCOC(=O)CCC(=O)OCC[N+](C)(C)C" ?
Found: 3.39

Lookup: Quick check: max response of CC1CCC(=O)C1=O (configuration not stated) ?
Found: 3.01

Lookup: Look at this compound and give its reported max response. "CN1CCN(C(c2ccccc2)c2ccccc2)CC1"
Found: -1.32

Lookup: Any idea what its max response is? The compound is "CCOC(=O)C(=O)CCc1ccccc1"
Found: 0.79

Lookup: Please look up its max response: O=CC1CC=CCC1 (configuration not stated)
Found: 10.8

Lookup: Can you look up the measured max response of "CC(C)O.CC(C)O.CCOC(=O)/C=C(\C)O.CCOC(=O)/C=C(\C)O.[Ti]" for me?
Found: -0.8

Lookup: Find the recorded max response belonging to "CC(=O)[O][Al][O]C(C)=O" and report it.
Found: 6.93

Lookup: Quick one: max response for CC1=CCCC(C)(C)C12CCC(C)O2 (configuration not stated) ?
Found: -12.5

Lookup: For the compound shown here, C[C@@H](c1ncncc1F)C(O)(Cn1cncn1)c1ccc(F)cc1F (some centres not stated) , give the reported max response.
Found: 3.08

Lookup: Request the reported max response associated with "CCNc1cc(O)ccc1C"
Found: 7.99

Lookup: Could you share which max response value was measured for "CCCCCCCCO[C@@H]1O[C@H](CO)[C@@H](O)[C@H](O)[C@H]1O" ?
Found: 4.48

Lookup: For the compound "Cc1ncc(CO)c(C=O)c1O" , what max response is on record?
Found: 0.556

Lookup: I'd like to know its max response. The compound in question is "CC1=CC=C(C(C)C)CC1"
Found: 1.32

Lookup: Any idea what its max response is? The compound is "O=C1C(O)=C(O)C(=O)C(O)=C1O"
Found: -9.06

Lookup: Fill in: max response of "Cc1oc(-c2ccccc2)nc1CCOc1cccc2c1ccn2CCC(=O)O" is ___
Found: -19

Lookup: Please report the recorded max response for "O=[N+]([O-])c1ccc(NCCO)c(OCCO)c1" .
Found: -13.3

Lookup: Give its max response value. Item: "O=C1CCC(=O)O1"
Found: 3.63

Lookup: May I ask what max response has been recorded for CC1(c2ccccc2)OC(C(=O)O)=CC1=O (configuration not stated) ?
Found: 2.42

Lookup: Quick one: max response of "O=S(=O)(Oc1ccc(Cl)cc1)c1ccccc1" ?
Found: -29.4

Lookup: Give the measured max response of "CCN(CC)CCNC(=O)c1cc(Br)c(N)cc1OC" .
Found: 10.1

Lookup: Could you tell me which max response is on file for "CCCCCCCN" ?
Found: -2.68

Lookup: # get_value(readout='max response', item= "O=C(O)C1(C(=O)O)CCC1.[NH2-].[NH2-].[Pt+2]" )
Found: -1.65

Lookup: Reported max response for O=C(NCC1CN(c2ccc(N3CCOCC3=O)cc2)C(=O)O1)c1ccc(Cl)s1 (configuration not stated) : what is it?
Found: -20.3

Lookup: Which max response is listed for "Nc1cccc(S(=O)(=O)c2cccc(N)c2)c1" ?
Found: -13.5

Lookup: // returns reported max response for input "CC/C=C\CCOC(=O)CC"
Found: 0.388

Lookup: Could you share which max response value was measured for "COc1cccc(N(C)C(=S)Oc2ccc3c(c2)CCCC3)n1" ?
Found: -20.4

Lookup: Name the reported max response value associated with the compound O=C(O)C(S)C(S)C(=O)O (configuration not stated)
Found: 3.09

Lookup: Param item = CCCCC(CC)COC(=O)CCCCCCCCC(=O)OCC(CC)CCCC (configuration not stated) ; retrieve measured max response.
Found: 1.51

Lookup: Give its max response value. Item: "O=C(O)c1ccccc1Cl"
Found: -1.6

Lookup: If you can, please state the reported max response value of "Cc1ccc(N=Nc2c(O)c(C(=O)O)cc3ccccc23)c(S(=O)(=O)O)c1" .
Found: 1.56
